Measurement kind: melting point

Briefly, melting point measured for "Cc1c(Cl)cc(-c2ccc(=O)[nH]n2)cc1Br" : 247 to 250 °C

Briefly, melting point measured for CC(NC(=O)Cc1cc(F)cc(F)c1)C(=O)NC1C(=O)N(CCc2ccccc2)Cc2ccccc21 (stereo not drawn) : 75 to 76 °C

Briefly, melting point measured for CC(=NOCCOc1ccc(CC2SC(=O)NC2=O)cc1)c1cncc(-c2ccccc2)c1 (stereo not drawn) : 150 to 153 °C

---

Documented melting point across a set of compounds

1. Cc1nnc(-c2ccc3occ(-c4ccc(S(=O)(=O)N(C)C)cc4)c3c2)o1 | 246 to 247 °C

Briefly, melting point measured for CCOC(=O)C1Cc2c(n(C)c3ccc(OCc4ccccc4)cc23)C1 (configuration not stated) : 90 to 95 °C

Briefly, melting point measured for "NC(=O)CNC(=O)COc1ccccc1" : 138 to 140 °C

Briefly, melting point measured for "CN(c1cccc2cc(C3=NCC4(CCN(Cc5nccn5C)CC4)S3)[nH]c12)S(=O)(=O)c1cccs1" : 103 °C

Briefly, melting point measured for "O=c1[nH]c2cc(Cl)c(Cl)cc2[n+]([O-])c1-c1ccccc1O" : 266 to 268 °C

Briefly, melting point measured for "COC(=O)c1cccnc1SCc1cccc(OC)c1" : 69 to 70 °C

Briefly, melting point measured for "O=C(O)c1ccc2c(=O)nc(-c3ccccn3)sc2c1" : 295 °C

Briefly, melting point measured for "CCCn1c(CCO)nc2c(N)nc3cc(OCCCNC(=O)C(C)C)ccc3c21" : 190 to 192 °C

Briefly, melting point measured for "COC(=O)c1cc(C)cc(NC(=O)c2nnn[nH]2)c1O" : 238 to 240 °C

Briefly, melting point measured for O=C(O)C(CC(=O)N1CC2CC=CCC2C1)Cc1ccccc1 (configuration not stated) : 128 to 132 °C

Briefly, melting point measured for "CCCCc1c2ccccc2nc2cc(N)ccc12" : 108 to 110 °C

Briefly, melting point measured for "O=C(O)c1nccc(OCc2ccccc2)c1OCc1ccccc1" : 120 °C

---

Measurement kind: melting point

Consider the worked cases shown below.
1. NC(=O)N1CC(c2ccccc2)C(c2ccc(Cl)cc2)=N1 (stereo not drawn) | 173 to 175 °C
2. CS(=O)(=O)Nc1cnc([N+](=O)[O-])cn1 | 204 to 207 °C
3. O=C1OCC2(CC2)N1c1nc(-c2ccc(Br)cc2)cs1 | 201 to 202 °C

Briefly, melting point measured for CC1=C2c3c(cnc4cc(Cl)ccc34)NC2CCN1 (stereo not drawn) : 209 to 212 °C

Briefly, melting point measured for "N#CC1=C2C=CC=c3ccccc3=C2CC=C1" : 109 to 111 °C

Briefly, melting point measured for C=C1c2cccc(NC(=O)c3c(Cl)cccc3Cl)c2OC1(C)OC (stereo not drawn) : 208 to 210 °C

Briefly, melting point measured for "O=C(O)c1ccc(CCCOCCCCCCBr)cc1" : 70 to 71 °C

Briefly, melting point measured for "O=C(O)c1cc(NCc2c(F)c(F)c(C(F)(F)F)c(F)c2F)ccc1[N+](=O)[O-]" : 121 °C

---

Measurement kind: melting point

1. COc1cc(C=CC(=O)CCCCO)cc(OC)c1 | 78 to 80 °C

Briefly, melting point measured for "O=C(c1ccc(-c2ccncc2)nc1)N1CCN(S(=O)(=O)c2ccc3cc(Br)ccc3c2)CC1" : 194 °C

Briefly, melting point measured for "CC(C)n1cc(C(=O)O)c2ccc(C(F)(F)F)cc21" : 177 to 178 °C

Briefly, melting point measured for "Cc1cc(F)ccc1-c1cc(N2CCSCC2)ncc1C(=O)NC(C)(C)C" : 164 to 169 °C

Briefly, melting point measured for CCOC(=O)CC1(O)C(=O)Nc2ccc(F)cc21 (stereo not given) : 133 to 135 °C

---

Documented melting point across a set of compounds

Consider the worked cases shown below.
1. COc1ccc([C@@H]2Sc3ccccc3N(CCN(C)C)C(=O)[C@@H]2OC(=O)c2ccc([N+](=O)[O-])cc2Cl)cc1 | 153 to 156 °C
2. O=C(Nc1ccccc1)c1cccc(-c2ccc(OCC(O)CCc3cccnc3)cc2)c1 (centres undefined) | 90 to 93 °C
3. CCCc1ccc(Cc2c(C(F)(F)F)[nH][nH]c2=O)cc1 | 114 to 116 °C
4. CSc1ccc(C(=N)Nc2ccc(F)cc2)cc1 | 145 to 147 °C
5. NC(=O)CCNC(=O)c1cccc(-c2cccc3oc(Cc4cccc(C(F)(F)F)c4)cc23)c1 | 155 to 156 °C
6. O=C(OCc1ccc([N+](=O)[O-])cc1)N1CCC(I)CC1 | 102 to 104 °C

Briefly, melting point measured for "CC(C)[C@H](NC(=O)[C@H](Cc1ccccc1)NC(=O)c1ccccc1)C(=O)O" : 191 °C

Briefly, melting point measured for "Cc1nc(NCCc2ccccc2)c2c(n1)N(c1ccccc1)CC2" : 105 to 106 °C

Briefly, melting point measured for "Nc1ncccc1Sc1ccccc1" : 108 to 109 °C

Briefly, melting point measured for "CSc1cccc(SC)c1S(N)(=O)=O" : 197 to 199 °C

Briefly, melting point measured for Cc1cc(C2(C(F)(F)F)CN(c3ccc(C(=O)NCC(F)(F)F)cc3)CO2)ccc1F (centres undefined) : 151 to 152 °C

Briefly, melting point measured for "N#Cc1cccc(C(=O)Nc2cccc(-c3cccc4c3/C(=C/c3ccc[nH]3)C(=O)N4)c2)c1" : 250 to 251 °C

Briefly, melting point measured for "N#Cc1cccnc1N1CCN(CC(=O)Nc2cc(F)cc(C(F)(F)F)c2)CC1" : 108 to 110 °C

Briefly, melting point measured for "Fc1ccc(Cc2ccc(NC3=NCCN3)cc2)cc1" : 110 to 112 °C

---

Documented melting point across a set of compounds

Consider the worked cases shown below.
1. Cc1nnc2ccc(-c3ccc(N)c(C(F)(F)F)c3)nn12 | 240 to 242 °C
2. COC1=CC2=CCC3C4CC=CC4(C)CCC3C2(C)CC1 (configuration not stated) | 83 to 92 °C
3. O=C(C=Cc1cccc(NC(=O)C=Cc2ccccc2)c1)NO | 178 °C
4. c1cnc2ccc(Cn3nnc4ccc(-n5ccnc5)nc43)cc2c1 | 227 to 230 °C
5. CCc1ccc(NS(=O)(=O)c2ccc(N3CCNC3=O)cc2)cc1 | 195 to 196 °C
6. CCOC(=O)C(Cc1ccccc1)NC(=O)COc1ccc(C2=NNC(=O)NC2)cc1C (configuration not stated) | 148 to 150 °C
7. O=[N+]([O-])c1ccc(Oc2ccccc2Oc2ccc([N+](=O)[O-])cc2)cc1 | 134 to 135 °C
8. O=C(C=c1sc2n(c1=O)Cc1ccccc1N=2)NC1CCCCC1 | 287 to 288 °C
9. Cc1cc(CSCCNc2nc(NC(=O)Nc3ccccc3)nn2C)oc1CN(C)C | 166 to 167 °C
10. O=C(O)C1Cc2c(ccc3c(=O)c4ccccc4oc23)O1 (configuration not stated) | 283 to 286 °C

Briefly, melting point measured for "COc1ccccc1N1CCN(CCNc2c(OC)cnn(C)c2=O)CC1" : 144 to 148 °C

Briefly, melting point measured for "CC(C)N1CCN(Cc2ccc(NC(=O)c3cccc4cc(Oc5cc(N)ncn5)ccc34)cc2C(F)(F)F)CC1" : 185 to 189 °C

---

Measurement kind: melting point

Consider the worked cases shown below.
1. COc1ccc(OC)c2c1C[C@@H](O)[C@H](N1CCN(c3cccc(C(F)(F)F)c3)CC1)C2 (relative stereo) | 184 to 187 °C
2. Cc1sc(CCc2ccc(C=CC=C3OC(=O)NC3=O)cc2)nc1-c1ccccc1 | 161 to 162 °C
3. CN1CCN(c2ccccc2C=C2SCCN(c3ccc(Cl)c(Cl)c3)C2=O)CC1 | 155 to 157 °C
4. COc1ccc(C(=O)N[C@@H](CNC(=O)c2ccc(C)cc2)c2ccccc2)cc1 | 230 to 238 °C

Continue with the next compound.
Briefly, melting point measured for "O=c1cc(-c2ccccc2)sc(N2CCOCC2)c1" : 160 to 161 °C

---

Documented melting point across a set of compounds

Consider the worked cases shown below.
1. COc1cc2c(cc1O)CCN(C(=O)c1cccc(C#N)c1)C2=O | 197 to 198 °C
2. NS(=O)(=O)c1cccc(NC(=O)c2cnn3ccc(-c4ccc(C(F)(F)F)cc4)nc23)c1 | 318 to 320 °C

Briefly, melting point measured for "N#Cc1ccc(-c2cccc(-c3nc4cc(C#N)ccc4[nH]3)c2)nc1" : 281 to 282 °C

---

Documented melting point across a set of compounds

Consider the worked cases shown below.
1) Cc1ccc(S(=O)(=O)OCC2CCc3sc(C(C)C)nc3C2)cc1 (configuration not stated) | 82 to 83 °C
2) CC(C)(O)Cn1cnc2c(N)nc3ccccc3c21 | 270 to 272 °C

Briefly, melting point measured for "Cc1nc2c3ccccc3ccn2c1Cc1nnn[nH]1" : 256 to 257 °C

Briefly, melting point measured for O=C1NCC(=O)c2ncn(C3OC(COC(=O)c4ccccc4)C(OC(=O)c4ccccc4)C3OC(=O)c3ccccc3)c2N1 (configuration not stated) : 252 °C

Briefly, melting point measured for "Cc1c(Cl)cccc1S(=O)(=O)Nc1ccc2c(c1)nc(C)n2-c1ccccc1" : 254 to 256 °C

Briefly, melting point measured for "NC(=O)C(O)(C(N)=O)c1ccccc1" : 159 °C

Briefly, melting point measured for "O=c1[nH]c2ccc(Br)cc2c(-c2ccccc2)[n+]1[O-]" : 275 to 276 °C

Briefly, melting point measured for COC(=O)C=C1CC(NC(=O)OC(C)(C)C)C1 (configuration not stated) : 79 to 82 °C

Briefly, melting point measured for "CCOC(=O)NC(=O)n1c(-c2cc(OC)c(O)c(OC)c2)nc(-c2ccc(N(CC)CC)cc2)c1-c1ccc(N(CC)CC)cc1" : 60 °C
